METHOD: Metabolic stability in Crab eating monkey liver microsome assessed as compound remaining measured after 60 min by UPLC-MS/MS analysis
Type: ADME, Macaca fascicularis
TEST_PARAMETERS: cynomolgus monkey, liver microsomes, read-out: Stability
MEASUREMENT_LABEL: remaining at 1 h (%)
Answers are plain numbers, in %.

Incoming: Requested read-out: remaining at 1 h. Entry: CN(C)CCOc1ccc2ncnc(NC3CCN(CC4CN(c5ccc(S(=O)(=O)C6CC6)cc5)C4)CC3)c2n1
Outgoing: 52

====

METHOD: Tmax in Sprague-Dawley rat at 15 mg/kg, po
Format: ADME, organism-based
TEST_PARAMETERS: in vivo
MEASUREMENT_LABEL: Tmax (h)
Answers are plain numbers, in h.

Incoming: Requested read-out: Tmax. Entry: CN(C)CCOc1ccc2ncnc(NC3CCN(CC4CN(c5ccc(S(=O)(=O)C6CC6)cc5)C4)CC3)c2n1
Outgoing: 7.3

# credit: ChEMBL document CHEMBL5104196
